pKd for assorted binders
# measurement_target: T1, EsCas13d, nuclease-dead (Eubacterium siraeum, UniProt B0MS50, R295A;H300A;R849A;H854A)
# T1 sequence: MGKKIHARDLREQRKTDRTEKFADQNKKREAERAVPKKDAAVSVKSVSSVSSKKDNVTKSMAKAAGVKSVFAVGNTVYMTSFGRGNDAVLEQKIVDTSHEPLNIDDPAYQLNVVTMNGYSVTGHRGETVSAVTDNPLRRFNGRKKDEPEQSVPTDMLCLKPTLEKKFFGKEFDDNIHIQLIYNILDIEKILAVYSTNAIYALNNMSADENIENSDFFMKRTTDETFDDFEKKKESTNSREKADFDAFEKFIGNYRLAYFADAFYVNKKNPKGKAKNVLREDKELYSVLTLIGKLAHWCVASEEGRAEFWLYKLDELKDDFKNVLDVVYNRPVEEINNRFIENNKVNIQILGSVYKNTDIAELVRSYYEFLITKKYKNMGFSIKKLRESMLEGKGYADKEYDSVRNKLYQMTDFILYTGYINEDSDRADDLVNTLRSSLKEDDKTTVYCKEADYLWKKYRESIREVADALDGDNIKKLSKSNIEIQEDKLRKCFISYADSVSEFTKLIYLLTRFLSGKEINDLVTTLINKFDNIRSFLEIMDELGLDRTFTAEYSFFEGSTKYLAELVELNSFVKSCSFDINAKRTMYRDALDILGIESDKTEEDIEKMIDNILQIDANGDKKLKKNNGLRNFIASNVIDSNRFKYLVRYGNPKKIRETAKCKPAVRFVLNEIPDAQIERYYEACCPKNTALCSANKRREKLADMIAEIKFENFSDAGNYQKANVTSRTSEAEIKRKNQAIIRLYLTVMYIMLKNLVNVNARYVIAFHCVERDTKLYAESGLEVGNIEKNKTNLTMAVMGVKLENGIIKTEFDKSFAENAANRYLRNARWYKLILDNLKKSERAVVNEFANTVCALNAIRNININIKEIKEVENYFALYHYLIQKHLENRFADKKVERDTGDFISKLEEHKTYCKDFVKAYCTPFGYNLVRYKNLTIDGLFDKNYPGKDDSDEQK
# assay_explanation: crRNA (strand 1, pre-loaded); Mg2+; 40 mM Tris-HCl pH 7.5, 150 mM NaCl, 6 mM MgCl2, 1 mM DTT, 0.1% Tween-20, 0.2 mg/ml BSA; 25 C; 10 min per concentration, then washed
# study_conditions: tags: His6-TwinStrep-SUMO cleaved; N-terminal SNAP kept (SNAP-Surface 488); label: 3' end held by stalled T7 RNA polymerase
pKd: −log10 of the molar value.
measurement_name: pKd

>>> observed_value("target 1 U8A,G12U (mixed) RNA 1: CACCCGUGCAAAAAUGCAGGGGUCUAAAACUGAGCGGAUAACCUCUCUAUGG RNA 2: GGGAAUGGAUCCACAUCUACGAAUUCGUACCAUAGAGAGUUUAACCGCUCACCGAGAUCGGAAGAGCACACGU")
7.88
>>> observed_value("target 1 U3G,G17U (mixed) RNA 1: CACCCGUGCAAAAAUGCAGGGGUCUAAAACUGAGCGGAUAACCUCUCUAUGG RNA 2: GGGAAUGGAUCCACAUCUACGAAUUCGUACCAUAUAGAGGUUAUCCGCGCACCGAGAUCGGAAGAGCACACGU")
7.68
>>> observed_value("target 1 insA 3' of 22,insA 3' of 3 (mixed) RNA 1: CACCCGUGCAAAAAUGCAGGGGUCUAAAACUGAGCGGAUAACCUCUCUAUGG RNA 2: GGGAAUGGAUCCACAUCUACGAAUUCGUACACAUAGAGAGGUUAUCCGCUACACCGAGAUCGGAAGAGCACACGU")
7.95
